# testedOn: Proprotein convertase subtilisin/kexin type 9 (Homo sapiens)
# protocolSummary: Inhibition of human recombinant full length ProLabel-tagged PCSK9 expressed in CHO-K1 cells incubated overnight and measured after 3 days by HTS assay
# Assay type: cell-based
pIC50: −log10 of the molar value.
measuredMetric: pIC50

• COc1ccc(CCC(=O)N(c2nccc3ccccc23)[C@@H]2CCCNC2)cc1 = 5.32

* * *

# testedOn: Proprotein convertase subtilisin/kexin type 9 (Homo sapiens, UniProt Q8NBP7)
# Sequence (Q8NBP7 31-152 limits assumed): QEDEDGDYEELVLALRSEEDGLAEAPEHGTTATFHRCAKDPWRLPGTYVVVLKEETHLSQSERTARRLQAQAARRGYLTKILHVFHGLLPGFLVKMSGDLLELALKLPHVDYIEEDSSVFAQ
# Sequence (Q8NBP7 153-692 limits assumed): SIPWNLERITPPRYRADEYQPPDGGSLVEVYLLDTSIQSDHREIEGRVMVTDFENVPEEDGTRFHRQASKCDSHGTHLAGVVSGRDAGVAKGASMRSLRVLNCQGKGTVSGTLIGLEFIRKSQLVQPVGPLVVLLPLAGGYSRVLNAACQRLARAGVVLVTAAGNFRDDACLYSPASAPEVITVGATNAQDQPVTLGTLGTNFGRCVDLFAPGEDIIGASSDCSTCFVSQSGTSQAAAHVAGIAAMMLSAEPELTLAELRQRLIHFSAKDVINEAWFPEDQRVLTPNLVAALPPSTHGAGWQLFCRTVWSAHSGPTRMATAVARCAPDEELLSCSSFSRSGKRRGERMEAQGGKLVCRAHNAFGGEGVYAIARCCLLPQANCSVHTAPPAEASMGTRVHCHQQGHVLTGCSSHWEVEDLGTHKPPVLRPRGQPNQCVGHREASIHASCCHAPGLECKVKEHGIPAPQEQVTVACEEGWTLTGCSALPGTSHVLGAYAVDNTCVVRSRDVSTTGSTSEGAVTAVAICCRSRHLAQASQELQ
# protocolSummary: Inhibition of human recombinant PCSK9 expressed in CHO-K1 cells assessed as alkaline phosphatase secretion incubated overnight and measured after 3 days by HTS assay
# Assay type: cell-based
pIC50: −log10 of the molar value.
measuredMetric: pIC50

- COc1ccc(CCC(=O)N(c2nccc3ccccc23)[C@@H]2CCCNC2)cc1: < 5.00

* * *

# testedOn: Proprotein convertase subtilisin/kexin type 9 (Homo sapiens)
# protocolSummary: Inhibition of PCSK9 in human HepG2 cells assessed as increase in LDL uptake after 24 hrs by fluorescence assay
measuredMetric: EC50 (µM)

• Cn1cccc1-c1ccc(-c2ccc(-c3ccc(-c4ccccc4)n3C)n2C)n1C = 6.04

* * *

# testedOn: Proprotein convertase subtilisin/kexin type 9 (Homo sapiens, UniProt Q8NBP7)
# protocolSummary: Inhibition of human recombinant full length ProLabel-tagged PCSK9 expressed in CHO-K1 cells incubated overnight and measured after 3 days by chemiluminescence assay
# Type: cell-based
pIC50: −log10 of the molar value.
measuredMetric: pIC50

- COc1ccc(CCC(=O)N(c2nccc3ccccc23)[C@@H]2CCCNC2)cc1: > 5.00

* * *

# System: HepG2
# protocolSummary: Inhibition of PCSK9 mRNA expression in human HepG2 cells after 24 hrs by qRT-PCR analysis
# Format: functional, cell-based
# conditions: HepG2, 24 h
pEC50: −log10 of the molar value.
measuredMetric: pEC50

- CN1C(=O)c2cc(NC(=O)c3ccc(C(F)(F)F)cc3)ccc2OC[C@@H]2O[C@H](CC(=O)NC3Cc4ccccc4C3)CC[C@@H]21: 6.44

* * *

# testedOn: Proprotein convertase subtilisin/kexin type 9 (Homo sapiens, UniProt Q8NBP7)
# protocolSummary: Inhibition of wild type His-tagged PCSK9 (unknown origin) binding to recombinant LDLR-AB domain (unknown origin) after 2 hrs by fluorescence assay
measuredMetric: IC50 (µM)

- Cn1cccc1-c1ccc(-c2ccc(-c3ccc(-c4ccccc4)n3C)n2C)n1C: 11.2

* * *

List of log10 of IC50 values.
# System: HepG2
# protocolSummary: Inhibition of PCSK9 mRNA expression in human HepG2 cells after 24 hrs by SYBR Green I dye-based qRT-PCR analysis
# Format: functional, cell-based
# conditions: HepG2, 24 h
measuredMetric: log10 of IC50 (log10 of the value in µM)

- COc1cc2c(c(OC)c1OC)-c1c(cc3c(c1OC)OCO3)C[C@@H](C)[C@@](C)(O)C2: 0.04
- COc1cc([C@@H]2O[C@H](c3cc(O)c(OC)c(OC)c3)[C@@H](C)[C@@H]2C)ccc1O: 0.50
- COc1c2c(cc3c1-c1c(cc4c(c1OC)OCO4)C[C@H](C)[C@H](C)C3)OCO2: 0.59
- C/C=C(/C)C(=O)Oc1c2c(cc3c1-c1c(cc(OC)c(OC)c1OC)C[C@](C)(O)[C@@H](C)C3)OCO2: -0.44
- CC(C)=CCc1c(O)cc(-c2cc3ccc(O)cc3o2)cc1O: 1.23

* * *

# Tested on: HepG2
# protocolSummary: Inhibition of PCSK9 mRNA expression in human HepG2 cells by SYBR Green I dye-based qRT-PCR analysis
# Format: functional, cell-based
pIC50: −log10 of the molar value.
measuredMetric: pIC50

* CC(C)[C@@H](C)/C=C/[C@@H](C)[C@H]1CCC2=C3[C@@H](O)[C@@H]4O[C@@]45C[C@@H](O)CC[C@]5(C)[C@H]3CC[C@@]21C | 5.08
* COc1cc2c(c(O)c1O)COC2=O | 5.14
* COC(=O)c1c(C)cc(O[C@@H]2O[C@H](CO)[C@@H](O)[C@H]2O)c(OC)c1O | 4.70
* Nc1ncnc2c1ncn2[C@@H]1O[C@H](CO)[C@@H](O)[C@H]1O | 4.73

Where these numbers come from: ChEMBL document CHEMBL4382228
